Each recorded value in this set is attributed to patent US5449692A.

Experiment: antagonism of maximal electroshock seizures (MES)
Format: in vivo
Conditions: MES test; read-out: MES - ED50 (effective dose in 50% of treated animals)
Structures can show the parent of a compound that is named as a salt.
Recorded ED50 for the following molecules
Metric: ED50 (mg/kg)

[[record]]
molecule = "C[C@H](NCc1ccc(NCc2cccc(F)c2)cc1)C(N)=O [FCE 27232, dihydrochloride]"
result_unit = "mg/kg"
meas_value = 6.4

[[record]]
molecule = "CC(NCc1ccc(NCCc2ccccc2)cc1)C(N)=O.Cl.Cl (stereo not shown)"
result_unit = "mg/kg"
meas_value = 17.1

[[record]]
molecule = "CC(NCc1ccc(NCc2ccc(Cl)cc2)cc1)C(N)=O.Cl.Cl (stereo not shown)"
result_unit = "mg/kg"
meas_value = 18.7

[[record]]
molecule = "CC(NCc1ccc(NCc2ccccc2)cc1)C(N)=O (stereo not shown) [FCE 26749, dihydrochloride, reference compound]"
result_unit = "mg/kg"
meas_value = 9.5


###

Experiment: antagonism of maximal electroshock seizures (MES)
Assay type: in vivo
Conditions: MES test; read-out: MES - ED50 (effective dose in 50% of treated animals)
Metric: ED50 (mg/kg)

[[record]]
compound = "CC(NCc1ccc(NCc2cccc(Cl)c2)cc1)C(N)=O.Cl.Cl (stereo not drawn)"
meas_value = 11.3

[[record]]
compound = "CC(NCc1ccc(NCc2ccc(Br)cc2)cc1)C(N)=O.Cl.Cl (stereo not drawn)"
meas_value = 29.1

[[record]]
compound = "CC(NCc1ccc(NCc2ccc(F)cc2)cc1)C(N)=O.Cl.Cl (stereo not drawn)"
meas_value = 26.5


###

Experiment: in vivo
Counter-ions that a name gives are not always drawn.
# cutoff 60 applies to selectivity ratio; >= gives true (1), < gives false (0)

[[record]]
compound = "CC(NCc1ccc(NCc2ccc(Cl)cc2)cc1)C(N)=O.Cl.Cl (stereo not shown) [FCE 28622, dihydrochloride]"
assigned_label = "true (1)"

[[record]]
compound = "CC(NCc1ccc(NCc2ccc(Br)cc2)cc1)C(N)=O.Cl.Cl (stereo not shown) [FCE 28639, dihydrochloride]"
assigned_label = "true (1)"

[[record]]
compound = "CC(NCc1ccc(NCc2ccccc2)cc1)C(N)=O (stereo not shown) [FCE 26749, dihydrochloride, reference compound]"
assigned_label = "false (0)"

[[record]]
compound = "CC(NCc1ccc(NCCc2ccccc2)cc1)C(N)=O.Cl.Cl (stereo not shown) [FCE 28623, dihydrochloride]"
assigned_label = "false (0)"

[[record]]
compound = "CC(NCc1ccc(NCc2ccc(F)cc2)cc1)C(N)=O.Cl.Cl (stereo not shown) [FCE 28640, dihydrochloride]"
assigned_label = "true (1)"

[[record]]
compound = "C[C@H](NCc1ccc(NCc2cccc(F)c2)cc1)C(N)=O [FCE 27232, dihydrochloride]"
assigned_label = "true (1)"

